- Tested Target: acetylcholinesterase (AChE) isolated from Electrophorus electricus (Electrophorus electricus, UniProt O42275)
- Construct: AChE isolated from Electrophorus electricus; from tissue
- Sequence (O42275 24-633): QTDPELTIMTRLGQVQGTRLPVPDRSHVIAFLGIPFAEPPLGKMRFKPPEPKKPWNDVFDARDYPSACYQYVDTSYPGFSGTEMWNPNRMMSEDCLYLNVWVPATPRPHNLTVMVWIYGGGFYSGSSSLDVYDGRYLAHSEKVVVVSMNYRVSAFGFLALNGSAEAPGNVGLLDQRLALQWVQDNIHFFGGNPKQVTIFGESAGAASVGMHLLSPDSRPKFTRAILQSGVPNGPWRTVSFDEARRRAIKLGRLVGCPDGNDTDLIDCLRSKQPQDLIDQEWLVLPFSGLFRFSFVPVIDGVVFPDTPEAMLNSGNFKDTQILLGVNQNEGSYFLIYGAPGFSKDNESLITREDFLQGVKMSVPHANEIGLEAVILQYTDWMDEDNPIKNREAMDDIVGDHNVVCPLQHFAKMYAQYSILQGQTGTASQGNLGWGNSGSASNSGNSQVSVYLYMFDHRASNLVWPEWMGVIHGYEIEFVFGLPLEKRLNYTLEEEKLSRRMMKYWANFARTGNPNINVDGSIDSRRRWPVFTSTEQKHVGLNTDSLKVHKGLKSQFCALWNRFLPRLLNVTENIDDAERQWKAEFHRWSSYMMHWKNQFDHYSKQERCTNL
- Assay Method Text: biochemical
- Conditions Used: read-out: AChE IC50
Assay Endpoint: IC50 (nM)
Just the number in nM, nothing appended.

[[record]]
compound_string = "CC[C@H](C)C(=O)N[C@H]1CC=C2C[C@H]3C(=O)C[C@]4(C)[C@@H]([C@H](C)N(C)C)[C@H](O)C[C@@]4(C)[C@@H]3CC[C@H]2[C@]1(C)/C=N/Cc1ccccc1"
assay_endpoint = "IC50"
value = 780

[[record]]
compound_string = "CC[C@H](C)C(=O)N[C@H]1CC=C2C[C@H]3C(=O)C[C@]4(C)[C@@H]([C@H](C)N(C)C)[C@H](O)C[C@@]4(C)[C@@H]3CC[C@H]2[C@]1(C)CN"
assay_endpoint = "IC50"
value = 368

[[record]]
compound_string = "CC[C@H](C)C1=N[C@H]2CC=C3C[C@H]4C(=O)C[C@]5(C)[C@@H]([C@H](C)N(C)C)[C@H](O)C[C@@]5(C)[C@@H]4CC[C@H]3[C@]2(C)CN1"
assay_endpoint = "IC50"
value = 28


Lab note: next compound to report on.
Can you look up the measured IC50 of `C[C@@H]([C@H]1[C@H](O)C[C@@]2(C)[C@@H]3CC[C@@H]4C(=CC[C@@H]5N=C(c6ccccc6)OC[C@]54C)C[C@H]3C(=O)C[C@]12C)N(C)C` for me?
7650

---

- Tested Target: human serum butyrylcholinesterase (BChE) (Homo sapiens, UniProt P06276)
- Construct: BChE isolated from human serum; from tissue; host or cells: human serum
- Sequence (P06276 29-602): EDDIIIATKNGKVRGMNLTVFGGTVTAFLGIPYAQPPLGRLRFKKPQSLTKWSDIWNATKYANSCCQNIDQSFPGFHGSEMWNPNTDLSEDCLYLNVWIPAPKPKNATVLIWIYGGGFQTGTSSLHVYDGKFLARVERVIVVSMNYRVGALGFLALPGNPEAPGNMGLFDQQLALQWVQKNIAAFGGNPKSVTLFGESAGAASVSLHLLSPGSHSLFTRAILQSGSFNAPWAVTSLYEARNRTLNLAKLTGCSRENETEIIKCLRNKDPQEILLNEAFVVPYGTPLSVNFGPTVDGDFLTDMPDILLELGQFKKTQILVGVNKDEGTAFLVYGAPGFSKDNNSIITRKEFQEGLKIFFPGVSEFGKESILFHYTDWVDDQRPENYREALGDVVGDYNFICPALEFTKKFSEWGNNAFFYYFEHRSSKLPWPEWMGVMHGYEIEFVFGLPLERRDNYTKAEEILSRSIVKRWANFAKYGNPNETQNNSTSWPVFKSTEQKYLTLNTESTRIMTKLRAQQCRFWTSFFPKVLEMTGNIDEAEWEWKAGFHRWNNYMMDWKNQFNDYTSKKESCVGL
- Assay Method Text: biochemical
Assay Endpoint: IC50 (µM)
Just the number in µM, nothing appended.

Can you look up the measured IC50 of CC(C)C1=NC2CC[C@H]3C=C4C(=O)C[C@]5(C)[C@@H]([C@H](C)N(C)C)[C@H](O)C[C@@]5(C)[C@@H]4CC[C@H]3[C@]2(C)CO1 (some centres unmarked) for me?
1.44

---

- Tested Target: human serum butyrylcholinesterase (BChE) (Homo sapiens)
- Construct: BChE isolated from human serum; from tissue; host or cells: human serum
- Assay Method Text: biochemical
- Conditions Used: human serum BChE; read-out: BChE
The reader will find reported IC50 values listed item by item below.

Solved cases below.
[[record]]
compound = "C[C@@H]([C@H]1[C@H](O)C[C@@]2(C)[C@@H]3CC[C@@H]4C(=CC[C@H](NC(=O)C(C)(C)C)[C@@]4(C)CO)C[C@H]3C(=O)C[C@]12C)N(C)C"
tested_target = "human serum butyrylcholinesterase (BChE) (Homo sapiens)"
value = "> 1 µM"

[[record]]
compound = "CCC(C)C(=O)N[C@H]1CC=C2C[C@H]3C(=O)C[C@]4(C)[C@@H]([C@H](C)N(C)C)[C@H](O)C[C@@]4(C)[C@@H]3CC[C@H]2[C@]1(C)CO (mixture of isomers) [Compound 7h]"
tested_target = "human serum butyrylcholinesterase (BChE) (Homo sapiens)"
value = "1.93 µM"

[[record]]
compound = "C[C@@H]([C@H]1[C@H](O)C[C@@]2(C)[C@@H]3CC[C@@H]4C(=CC[C@H](NC(=O)Cc5ccccc5)[C@@]4(C)CO)C[C@H]3C(=O)C[C@]12C)N(C)C"
tested_target = "human serum butyrylcholinesterase (BChE) (Homo sapiens)"
value = "> 10 µM"

[[record]]
compound = "C[C@@H]([C@H]1[C@H](O)C[C@@]2(C)[C@@H]3CC[C@@H]4C(=CC[C@H](N)[C@@]4(C)CO)C[C@H]3C(=O)C[C@]12C)N(C)C"
tested_target = "human serum butyrylcholinesterase (BChE) (Homo sapiens)"
value = "> 10 µM"


Lab note: next compound to report on.
Which IC50 is reported with human serum butyrylcholinesterase (BChE) (Homo sapiens) for this entry: CC(C)C(=O)NC1CC[C@]23CC24C(=O)C[C@]2(C)[C@@H]([C@H](C)N(C)C)[C@H](O)C[C@@]2(C)[C@@H]4CC[C@H]3[C@]1(C)CO (stereo in doubt) ?
> 10 µM
